test: Cycloheximide Counterscreen for Small Molecule Inhibitors of Shiga Toxin; details: cell reporter, cycloheximide protein synthesis inhibition counterscreen; hits give high values; also: read at 38.3 µM for the half of the compounds with a filed dose; 0% is about no effect
The campaign covered roughly 300,000 compounds. About 37,000 (12%) were called active. The list comes from a sample in which actives are over-represented; it also holds close analogues and randomly drawn compounds.
This section presents molecules with their documented max response values.
Kindly provide the numeric value in % only, without the unit symbol.

Cc1cc(=O)[nH]c(S)c1C#N : -1.97

Task: I am curious: what max response value has been reported for CS(=O)(=O)N(CC(=O)N1CCOCC1)c1cccc(Cl)c1Cl ?
Result: 4.45

Task: I am curious: what max response value has been reported for C=CCOc1ccc(C(=O)Nc2ccccc2C(=O)N2CCCC2)cc1 ?
Result: -1.61

Task: I am curious: what max response value has been reported for CN(C)CCCSc1ccccc1NC(=O)/C=C/c1ccccc1 ?
Result: 5.31

Task: I am curious: what max response value has been reported for Cc1ccc(C(=O)NC2CCN(C(=O)Nc3ccccc3Cl)CC2)cc1 ?
Result: -2.19

Task: I am curious: what max response value has been reported for O=C1CCN(Cc2ccc([N+](=O)[O-])cc2)CCN1[C@H](CO)Cc1ccccc1 ?
Result: -3.88
